# Lookup of reported TGI keyed by entry
Tested on: OVCAR-5 ovarian
Test: NCI tumour cell line growth inhibition, 48 h
OUTCOME_MEASURE: TGI

MOLECULE	OUTCOME_MEASURE	READING
CC(=O)Nc1cccc(N2C(=O)/C(=C\c3cccc(Oc4ccccc4)c3)S(=O)(=O)C2c2ccccc2)c1 (stereo not given)	TGI	> 100 µM
CN(C)Cc1cc(C(=O)/C=C/c2ccc(Cl)c(Cl)c2)cc(CN(C)C)c1O	TGI	20.9 µM
O/N=C(/CC(O)(C(F)(F)F)C(F)(F)F)c1ccccc1	TGI	> 10 µM
CCOC(=O)Cc1nnc2n(-c3ccccc3)c(=O)c3ccccc3n12	TGI	> 100 µM
NS(=O)(=O)c1ccc(Nc2c3ccccc3nc3c(C(=O)N4CCN(CCO)CC4)cccc23)cc1	TGI	> 100 µM
